meta.source: the Biogen ADME set (Fang et al. 2023)

# Test Parameters: pH 6.8
Value Type: aqueous solubility (µg/mL)

Some molecules with recorded aqueous solubility:
# Molecule, Value Type, Result
data = [
    ("Cc1nc(CN(C)C(=O)C2c3ccccc3-c3ccccc32)no1", "aqueous solubility", 32.6),
    ("O=C(CN1CCCN(c2ccc(C(F)(F)F)cn2)CC1)Nc1ccccc1", "aqueous solubility", 1.7),
    ("Cc1nc(C)c(CNc2cnn(-c3ccccc3)c2)s1", "aqueous solubility", 36.4),
    ("OCC1CCCCN1Cc1ccc(-c2ccccc2)cc1 (configuration not stated)", "aqueous solubility", 41.7),
    ("CS(=O)(=O)N1CC(c2n[nH]c3ncccc23)C1", "aqueous solubility", 33.3),
]

[a] O=C(Nc1nc2ccccc2[nH]1)C1CCCO1 (configuration not stated)
[b] CC(C)C[C@@H](CO)n1cc(-c2ccccc2Cn2cccn2)nn1
Query string: Which has the smaller recorded aqueous solubility, a or b ? Answer format: the label of the selected item.
Result string: b
(b: 17 µg/mL, a: 35.5 µg/mL)

[P] Cc1ccc(C(=O)C(=O)Nc2c(C)nn(C)c2C)cc1
[Q] Cc1nnc(NCCc2ccc3c(c2)OCO3)c(C#N)c1C
Query string: Select the item whose aqueous solubility value is smaller, choosing between P and Q . # respond with the chosen item's label
Result string: Q
(Q: 22.4 µg/mL, P: 32.6 µg/mL)

[P] c1cnc(-n2cccn2)c(CNC2CCCC2)c1
[Q] O=C(Cc1cccc2ccccc12)NCc1nnc2n1-c1ccccc1CC2
Query string: Rank P against Q by their aqueous solubility values and give the higher one. Provide the label of your selected option as the answer.
Result string: Q

----------
Value Type: MDR1-MDCK efflux ratio

Example compounds with recorded MDR1-MDCK efflux ratio:
# Compound, MDR1-MDCK efflux ratio
records = [
    ("O=C(Nc1ccn(Cc2ccccn2)n1)c1c(F)cccc1I", 2.85),
    ("CCNC(=O)c1ccc(-c2cc(C)cc(OC)c2OC)nc1", 0.998),
    ("O=C(Nc1nccs1)c1c2c(nc3ccccc13)CCC2", 1.44),
    ("COc1cccc(CNc2ncc(-c3ccccc3)n2C)c1", 0.539),
    ("O=C(CN1CCCC(c2cccc(-c3cccc(Cl)c3)n2)C1)N1CCCC1 (centres undefined)", 2.16),
    ("O=C(O)c1ccccc1COc1cccc2cccnc12", 1.76),
    ("Cc1cc(Nc2ccc3c(c2)oc(=O)n3C)nc(C2CC2)n1", 0.717),
    ("COc1ccc(-c2nn(C)c3ccccc23)c(OC)c1OC", 0.515),
    ("N#Cc1cc(CN2CCC(Nc3ncnc4sc(Cl)cc34)CC2)ccc1F", 9.4),
    ("CCn1nc(CNC(=O)c2nc(C)c[nH]2)c2ccccc21", 5.37),
]

[1] CNC(=O)C1(Cc2ccc(-c3cccnc3)cc2)CCN(Cc2cccc(F)c2)C1 (centres undefined)
[2] Clc1ccccc1CNCc1ccc2c(c1)OCCO2
[3] Cn1c(-c2n[nH]c3c2CCCC3)nnc1N1CCC2(CNC(=O)C2)C1 (centres undefined)
[4] Cc1nn(Cc2csc(-c3cccs3)n2)c(N)c1C#N
Query string: Would you mind ranking these compounds by ascending MDR1-MDCK efflux ratio? As an answer, provide the labels arranged in the order called for.
Result string: 2, 4, 1, 3
(2: 0.443, 4: 0.689, 1: 1.32, 3: 5.01)

[I] COC(=O)N1CC(NCc2c(C)nn(C(C)(C)C)c2C)C1
[II] CN(Cc1cnc2ccccc2n1)S(=O)(=O)N1CCCCCC1
Query string: Compare MDR1-MDCK efflux ratio: is it lower for I or for II ? // output: label of the selected item
Result string: II
(II: 0.62, I: 1.79)

[I] CC(C)(C)OC(=O)NCc1ccc(C(=N)NC(=O)OCc2ccccc2)cc1
[II] CN(CCc1ccncc1)c1ncccc1C#N
Query string: Look at I and II . Which one has the lower recorded MDR1-MDCK efflux ratio number? State your choice using its label.
Result string: II
(II: 0.743, I: 2.23)

[a] CC(=O)Nc1cc(CCC2CCNCC2)ccn1
[b] Cn1cnc2ncn(Cc3nc(CCc4ccc(Cl)cc4)no3)c(=O)c21
[c] CCN(CC)Cc1ccc2cc(COC(=O)Nc3ccc(C(=O)NO)cc3)ccc2c1
Query string: Hey, can you sort those compounds up there by MDR1-MDCK efflux ratio, smallest first? Lab note: final answer is the ordered label list.
Result string: a, b, c

----------
Value Type: intrinsic clearance, rat liver microsomes (mL/min/kg)

# Compound, Result
rows = [
    ("Cc1ccc(NC(=O)c2cccc3cccnc23)cc1", 240),
    ("CNCc1cc(NC)nc(C2CCCN2C(=O)COc2ccccc2OC)n1 (configuration not stated)", 45.1),
    ("CCOc1cccc(-c2cccc(N)n2)c1", 556),
    ("CCOc1ccc(CNC(=O)Cn2ccc3cc(S(=O)(=O)N4CCCC4)ccc32)cc1", 2100),
]

[1] Cc1ccn(-c2ccc(NCC3CC3)nn2)n1
[2] CCc1nc(CNc2ccc(C#N)nc2)cs1
Query string: // select label with min value of measured intrinsic clearance, rat liver microsomes from [ 1 , 2 ] Kindly state the label of the option you pick.
Result string: 2

----------
Value Type: intrinsic clearance, rat liver microsomes (mL/min/kg)

# Compound, Result
rows = [
    ("CCC(=O)N1CCCc2cc(C(O)CN3CCN(c4ccc(OC)cc4)CC3)ccc21 (stereo unspecified)", 283),
]

[I] Cc1noc(C(C)C)c1C(=O)Nc1ccccn1
[II] COCC(=O)NC1(C#Cc2ccc(NC(=O)C3CC3)nc2)CCCCC1
Query string: Parameter check: reported intrinsic clearance, rat liver microsomes is higher for which label, I or II ? Bench note: the answer is the label of the chosen record.
Result string: I
(I: 510 mL/min/kg, II: 153 mL/min/kg)

----------
Value Type: intrinsic clearance, human liver microsomes (mL/min/kg)

[a] Cc1ccc(-c2nnc(SCCn3cccn3)[nH]2)cc1
[b] CC(=O)N[C@H]1CC2(CCN(C(=O)COc3cc(C)c(Cl)c(C)c3)CC2)OC[C@]1(C)O
[c] Cc1sc2nc(CN3CCC(C)CC3)nc(N3CCN(c4cnccn4)CC3)c2c1C
Query string: Arrange the items listed above so that intrinsic clearance, human liver microsomes rises from first to last. Please express your ranking as an ordered list of the labels.
Result string: b, a, c
(b: 24.4 mL/min/kg, a: 96.9 mL/min/kg, c: 228 mL/min/kg)

----------
# Test Parameters: pH 6.8
Value Type: aqueous solubility (µg/mL)

Worked cases, answers included:
# Molecule, Value Type, Unit Of Measure, Result
rows = [
    ("CCCCC1=NC2(CCCC2)C(=O)N1Cc1ccc(-c2ccccc2-c2nn[nH]n2)cc1", "aqueous solubility", "µg/mL", 37),
    ("CC(C)(C)OC(=O)NCc1ccc(C(=N)NC(=O)OCc2ccccc2)cc1", "aqueous solubility", "µg/mL", 2.59),
    ("Cc1cc(F)ccc1C1C(=O)NCCN1C(=O)c1ccc2nccn2c1 (centres undefined)", "aqueous solubility", "µg/mL", 62.2),
]

[1] CC(C)NC(=O)Cn1nnnc1C(C)(C)C
[2] O=C(CCCc1nnc(-c2ccccc2)o1)Nc1cccc2ccccc12
Query string: Looking only at measured aqueous solubility, which entry is lower, 1 or 2 ? // caller expects the label of the chosen entry
Result string: 2
(2: 1.31 µg/mL, 1: 23.3 µg/mL)

[P] Cc1ccc(CNC(=O)CN2CCC(n3nnc4cc(C)ccc43)CC2)cc1
[Q] NC(=O)C1(Cc2ccc(-c3ccncc3)cc2)CCN(C(=O)Cc2cccc(F)c2)CC1
[R] Cc1ccc(-c2nc(CN3C(=O)C(=O)N(C4CCCC4)C3=O)cs2)cc1
[S] c1ccc(-n2ncc3c(-n4ccnc4)ncnc32)cc1
[T] COc1ccc(Nc2nc3ccccc3c3nncn23)cc1
Query string: Put the items in sequence by aqueous solubility, from largest down. I would appreciate it if you listed the labels in the requested order.
Result string: Q, P, S, R, T

[a] Cc1ccsc1C(=O)NCc1ccc2c(c1)OCCCO2
[b] CC1CC1C(=O)N1CCC(n2c(=O)[nH]c3ccccc32)CC1 (centres undefined)
Query string: Between a and b , whose recorded aqueous solubility is greater? Give the label under which the chosen entry appears.
Result string: a

----------
Value Type: intrinsic clearance, rat liver microsomes (mL/min/kg)

# Molecule, Unit Of Measure, Result
measured = [
    ("COc1ccc2cc(-c3[nH]c(-c4ccc(S(C)=O)cc4)nc3-c3ccncc3)ccc2c1 (stereo unspecified)", "mL/min/kg", 121),
]

[P] CC1CCC(O)(CSc2nncn2C(C)C)CC1 (stereo unspecified)
[Q] Cn1c(=O)c2c(nc3n2CCN3Cc2c(F)cccc2Cl)n(C)c1=O
[R] CC1=C(Br)CN(CCc2nc3ccccc3c(=O)[nH]2)CC1
Query string: Rank the 3 molecules: largest intrinsic clearance, rat liver microsomes first, smallest last. Your task in answering is to list the labels in the requested order.
Result string: R, P, Q
(R: 2050 mL/min/kg, P: 214 mL/min/kg, Q: 146 mL/min/kg)
